Target: T1, interleukin 18 binding protein (IL-18BP) (UniProt O95998 31-194)
T1 sequence (looked up): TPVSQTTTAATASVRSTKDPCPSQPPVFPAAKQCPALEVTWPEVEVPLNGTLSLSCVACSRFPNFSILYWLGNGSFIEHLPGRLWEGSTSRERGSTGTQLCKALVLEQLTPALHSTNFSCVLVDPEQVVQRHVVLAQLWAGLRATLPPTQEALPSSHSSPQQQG
Test: cell-based or functional assay
Kind request: treat 1 as inclusive, so Ratio (-BP/+BP), DF-100,000 at 1 or higher is y, anything lower is n.

>  <BINDER>
IL-18 variant K53N, S55A, R104N, P107A, H109Y (ligand) YFGKLESKLSVIRNLNDQVLFIDQGNRPLFEDMTDSDMRDNAPRTIFIISMYNDAQPRGMAVTISVKSEKISTLSSENKIISFKEMNPPDNIKDTKSDIIFFQNSVAGYDNKMQFESSSYEGYFLASEKERDLFKLILKKEDELGDRSIMFTVQNED

>  <CLASS ASSIGNMENT>
y

$$$$
>  <BINDER>
IL-18 variant K53H, S55I (ligand) YFGKLESKLSVIRNLNDQVLFIDQGNRPLFEDMTDSDMRDNAPRTIFIISMYHDIQPRGMAVTISVKSEKISTLSSENKIISFKEMNPPDNIKDTKSDIIFFQRSVPGHDNKMQFESSSYEGYFLASEKERDLFKLILKKEDELGDRSIMFTVQNED

>  <CLASS ASSIGNMENT>
n

$$$$
>  <BINDER>
IL-18 variant K53D, S55N, H109I (ligand) YFGKLESKLSVIRNLNDQVLFIDQGNRPLFEDMTDSDMRDNAPRTIFIISMYDDNQPRGMAVTISVKSEKISTLSSENKIISFKEMNPPDNIKDTKSDIIFFQRSVPGIDNKMQFESSSYEGYFLASEKERDLFKLILKKEDELGDRSIMFTVQNED

>  <CLASS ASSIGNMENT>
y

$$$$
>  <BINDER>
IL-18 variant K8R, L9G, S10C, K53G, S55A, R104G (ligand) YFGKLESRGCVIRNLNDQVLFIDQGNRPLFEDMTDSDMRDNAPRTIFIISMYGDAQPRGMAVTISVKSEKISTLSSENKIISFKEMNPPDNIKDTKSDIIFFQGSVPGHDNKMQFESSSYEGYFLASEKERDLFKLILKKEDELGDRSIMFTVQNED

>  <CLASS ASSIGNMENT>
n

$$$$

[Q] # check: Ratio (-BP/+BP), DF-100,000 of IL-18 variant K53Y, S55G, Q56H (ligand) YFGKLESKLSVIRNLNDQVLFIDQGNRPLFEDMTDSDMRDNAPRTIFIISMYYDGHPRGMAVTISVKSEKISTLSSENKIISFKEMNPPDNIKDTKSDIIFFQRSVPGHDNKMQFESSSYEGYFLASEKERDLFKLILKKEDELGDRSIMFTVQNED is greater than or equal to 1
[A] n

[Q] Evaluate IL-18 variant K53H, S55R (ligand) YFGKLESKLSVIRNLNDQVLFIDQGNRPLFEDMTDSDMRDNAPRTIFIISMYHDRQPRGMAVTISVKSEKISTLSSENKIISFKEMNPPDNIKDTKSDIIFFQRSVPGHDNKMQFESSSYEGYFLASEKERDLFKLILKKEDELGDRSIMFTVQNED : Ratio (-BP/+BP), DF-100,000 at minimum 1?
[A] y

[Q] Quick check, Ratio (-BP/+BP), DF-100,000 >= 1? IL-18 variant K53H, S55M, Q56H (ligand) YFGKLESKLSVIRNLNDQVLFIDQGNRPLFEDMTDSDMRDNAPRTIFIISMYHDMHPRGMAVTISVKSEKISTLSSENKIISFKEMNPPDNIKDTKSDIIFFQRSVPGHDNKMQFESSSYEGYFLASEKERDLFKLILKKEDELGDRSIMFTVQNED
[A] n
